biological target: Integrin alpha-IIb/beta-3 (Homo sapiens, UniProt P08514+P05106); experiment: In vitro inhibition of ADP-induced platelet aggregation in human platelet rich plasma (hPRP)
Sequence (P05106 27-788 limits assumed): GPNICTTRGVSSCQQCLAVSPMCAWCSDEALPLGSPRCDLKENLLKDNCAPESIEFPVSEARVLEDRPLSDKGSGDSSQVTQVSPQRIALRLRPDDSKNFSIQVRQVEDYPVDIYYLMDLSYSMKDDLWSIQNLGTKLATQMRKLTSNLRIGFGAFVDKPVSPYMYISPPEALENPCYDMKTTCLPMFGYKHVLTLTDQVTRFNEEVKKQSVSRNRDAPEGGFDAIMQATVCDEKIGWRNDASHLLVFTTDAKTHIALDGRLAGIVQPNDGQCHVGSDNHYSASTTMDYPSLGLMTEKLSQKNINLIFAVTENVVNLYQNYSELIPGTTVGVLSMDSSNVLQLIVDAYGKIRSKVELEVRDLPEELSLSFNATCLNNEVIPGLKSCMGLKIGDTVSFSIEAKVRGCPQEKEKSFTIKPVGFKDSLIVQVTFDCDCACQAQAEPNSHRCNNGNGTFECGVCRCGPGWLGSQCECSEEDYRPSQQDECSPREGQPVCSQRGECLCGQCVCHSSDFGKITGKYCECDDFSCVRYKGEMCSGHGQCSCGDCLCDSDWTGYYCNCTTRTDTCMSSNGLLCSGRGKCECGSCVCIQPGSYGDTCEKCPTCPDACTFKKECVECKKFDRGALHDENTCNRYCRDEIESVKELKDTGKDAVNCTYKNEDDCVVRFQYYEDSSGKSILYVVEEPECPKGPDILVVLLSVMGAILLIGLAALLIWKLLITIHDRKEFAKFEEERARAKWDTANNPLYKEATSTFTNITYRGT
Sequence (P08514 32-887 limits assumed): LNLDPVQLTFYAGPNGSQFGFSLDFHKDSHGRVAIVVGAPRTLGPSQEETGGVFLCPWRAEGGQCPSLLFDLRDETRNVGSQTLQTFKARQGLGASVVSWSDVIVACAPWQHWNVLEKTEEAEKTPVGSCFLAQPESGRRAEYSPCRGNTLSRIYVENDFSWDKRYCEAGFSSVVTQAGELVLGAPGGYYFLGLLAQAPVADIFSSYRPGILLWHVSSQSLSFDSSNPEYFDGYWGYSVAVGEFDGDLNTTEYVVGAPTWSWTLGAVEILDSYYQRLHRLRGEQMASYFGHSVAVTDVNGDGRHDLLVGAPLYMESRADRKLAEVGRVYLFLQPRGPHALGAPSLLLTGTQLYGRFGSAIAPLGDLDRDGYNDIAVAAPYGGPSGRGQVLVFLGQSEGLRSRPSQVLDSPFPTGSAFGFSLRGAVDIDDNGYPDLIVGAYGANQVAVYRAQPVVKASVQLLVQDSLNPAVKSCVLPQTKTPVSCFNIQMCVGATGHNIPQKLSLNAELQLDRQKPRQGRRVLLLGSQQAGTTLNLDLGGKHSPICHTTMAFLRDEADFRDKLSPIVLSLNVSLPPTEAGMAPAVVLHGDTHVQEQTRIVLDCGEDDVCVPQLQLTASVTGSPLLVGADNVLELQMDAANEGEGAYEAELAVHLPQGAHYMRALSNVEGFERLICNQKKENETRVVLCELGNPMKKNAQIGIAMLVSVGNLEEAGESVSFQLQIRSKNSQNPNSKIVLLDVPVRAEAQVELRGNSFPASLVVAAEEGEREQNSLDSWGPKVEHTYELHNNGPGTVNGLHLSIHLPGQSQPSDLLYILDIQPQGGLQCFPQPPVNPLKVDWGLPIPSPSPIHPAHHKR
Sequence (P08514 891-1039 limits assumed): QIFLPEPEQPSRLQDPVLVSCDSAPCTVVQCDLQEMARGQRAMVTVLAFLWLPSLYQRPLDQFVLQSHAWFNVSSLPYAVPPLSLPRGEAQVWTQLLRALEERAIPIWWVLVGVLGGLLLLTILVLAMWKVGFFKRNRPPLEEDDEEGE
Param label: returns Criterion met when IC50 < 60 nM, returns Criterion not met otherwise, including exact equality.

Known results for molecules:
>  <molecule>
N=C(N)c1ccc(C2=NOC(CC(=O)NC(CC(=O)O)CC(=O)O)C2)cc1 (stereo unspecified)

>  <target or test system>
Integrin alpha-IIb/beta-3 (Homo sapiens, UniProt P08514+P05106)

>  <class assignment>
Criterion not met

$$$$
>  <molecule>
N=C(N)c1ccc(C2=NOC(CC(=O)NC[C@H](NC(=O)OCCC3CC3)C(=O)O)C2)cc1 (stereo partly specified)

>  <target or test system>
Integrin alpha-IIb/beta-3 (Homo sapiens, UniProt P08514+P05106)

>  <class assignment>
Criterion met

$$$$
>  <molecule>
COC(=O)N[C@@H](CNC(=O)CC1CC(c2ccc(C(=N)N)cc2)=NO1)C(=O)O (stereo partly specified)

>  <target or test system>
Integrin alpha-IIb/beta-3 (Homo sapiens, UniProt P08514+P05106)

>  <class assignment>
Criterion not met

$$$$
>  <molecule>
CC(C)COC(=O)N[C@@H](CNC(=O)CC1CC(c2ccc(C(=N)N)cc2)=NO1)C(=O)O (stereo partly specified)

>  <target or test system>
Integrin alpha-IIb/beta-3 (Homo sapiens, UniProt P08514+P05106)

>  <class assignment>
Criterion met

$$$$
>  <molecule>
N=C(N)c1ccc(C2=NOC(CC(=O)N[C@H](CCc3cccnc3)CC(=O)O)C2)cc1 (stereo partly specified)

>  <target or test system>
Integrin alpha-IIb/beta-3 (Homo sapiens, UniProt P08514+P05106)

>  <class assignment>
Criterion not met

$$$$
>  <molecule>
COC(=O)C[C@H](CN1CCCC1)NC(=O)CC1CC(c2ccc(C(=N)N)cc2)=NO1 (stereo partly specified)

>  <target or test system>
Integrin alpha-IIb/beta-3 (Homo sapiens, UniProt P08514+P05106)

>  <class assignment>
Criterion not met

$$$$
>  <molecule>
CCCCOC(=O)N[C@@H](CNC(=O)CC1CC(c2ccc(C(=N)N)cc2F)=NO1)C(=O)O (stereo partly specified)

>  <target or test system>
Integrin alpha-IIb/beta-3 (Homo sapiens, UniProt P08514+P05106)

>  <class assignment>
Criterion not met

$$$$
>  <molecule>
N=C(N)c1ccc(C2=NOC(CC(=O)N[C@@H](CC(=O)O)Cc3ccccc3)C2)cc1 (stereo partly specified)

>  <target or test system>
Integrin alpha-IIb/beta-3 (Homo sapiens, UniProt P08514+P05106)

>  <class assignment>
Criterion not met

$$$$
>  <molecule>
N=C(N)c1ccc(C2=NOC(CC(=O)N[C@@H](CC(=O)O)C(=O)N3CCc4ccccc4C3)C2)cc1 (stereo partly specified)

>  <target or test system>
Integrin alpha-IIb/beta-3 (Homo sapiens, UniProt P08514+P05106)

>  <class assignment>
Criterion not met

$$$$
>  <molecule>
N=C(N)c1ccc(C2=NOC(CC(=O)N[C@@H](CC(=O)O)C(=O)N3CCSCC3)C2)cc1 (stereo partly specified)

>  <target or test system>
Integrin alpha-IIb/beta-3 (Homo sapiens, UniProt P08514+P05106)

>  <class assignment>
Criterion not met

$$$$

Record `CCCCOC(=O)N[C@H](CNC(=O)C[C@@H]1CC(c2ccc(C(=N)N)cc2)=NO1)C(=O)O` : is its IC50 strictly below 60 nM?
Criterion not met

Does the reported IC50 of the following molecule sit strictly below 60 nM? CCCCOC(=O)N[C@@H](CNC(=O)CC1CC(c2ccc(C(=N)N)cc2)=NO1)C(=O)OC (stereo partly specified)
Criterion met
